# credit: patent US20260193366A1

# target_desc: T1, hIL-4Rα on cells (human, UniProt P24394 26-825)
# T1 sequence: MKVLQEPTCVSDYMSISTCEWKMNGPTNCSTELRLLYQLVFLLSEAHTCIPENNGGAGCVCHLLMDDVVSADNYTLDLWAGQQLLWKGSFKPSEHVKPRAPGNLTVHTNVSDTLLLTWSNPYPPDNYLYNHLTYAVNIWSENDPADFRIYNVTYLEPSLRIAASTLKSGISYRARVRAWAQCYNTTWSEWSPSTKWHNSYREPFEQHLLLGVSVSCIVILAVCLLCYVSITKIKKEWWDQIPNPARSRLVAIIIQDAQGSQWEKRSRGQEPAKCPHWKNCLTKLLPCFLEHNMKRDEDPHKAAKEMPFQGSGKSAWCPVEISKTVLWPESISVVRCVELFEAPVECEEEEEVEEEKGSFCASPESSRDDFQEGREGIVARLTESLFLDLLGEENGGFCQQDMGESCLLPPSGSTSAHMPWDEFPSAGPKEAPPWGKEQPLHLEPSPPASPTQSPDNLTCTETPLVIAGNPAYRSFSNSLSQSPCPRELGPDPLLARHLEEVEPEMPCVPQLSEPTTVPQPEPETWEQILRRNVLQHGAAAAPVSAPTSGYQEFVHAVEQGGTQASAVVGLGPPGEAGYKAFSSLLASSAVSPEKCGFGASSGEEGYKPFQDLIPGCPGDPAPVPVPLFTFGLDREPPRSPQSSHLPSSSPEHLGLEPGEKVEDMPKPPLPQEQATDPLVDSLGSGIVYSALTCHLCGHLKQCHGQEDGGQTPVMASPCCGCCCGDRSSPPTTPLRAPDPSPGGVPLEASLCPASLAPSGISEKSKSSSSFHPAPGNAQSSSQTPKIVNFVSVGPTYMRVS
# assay_overview: FACS on HEK293 cells, competitor biotin-hIL-4;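 further: HEK293 cells stably co-expressing hIL-13Rα and hIL-4Rα, stained for 1 h at 4 °C, read-out as mean fluorescence intensity by flow cytometry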
Each entry below lists one item and its recorded Relative Blockade of IL-4 Binding IC50 value.

Construct 45 (mAb494) (antibody, IgG4, V domains shown, VH/VL only) VH: EVQLVESGGGLEQPGGSLRLSCAGSGFTFRDFAMTWVRQAPGKGLEWVSSISGSGDGTYYADSVKGRFTISRDNSKNTLYLQMNSLRAEDTAVYYCAKDRVSITIRPRYYGLDVWGQGTTVTVSS VL: DIVMTQSPLSLPVTPGEPASISCTASQSLLYSIGYNYVDWYLQKSGQSPQLLIYLGNNRATGVPDRFSGSGSGTDFTLKISRVEAEDVGFYYCMQSLQTPYTFGQGTKLEIK	1.08 relative to dupilumab

Looking up Construct 29 (mAb437) (antibody, IgG4, V domains shown, VH/VL only) VH: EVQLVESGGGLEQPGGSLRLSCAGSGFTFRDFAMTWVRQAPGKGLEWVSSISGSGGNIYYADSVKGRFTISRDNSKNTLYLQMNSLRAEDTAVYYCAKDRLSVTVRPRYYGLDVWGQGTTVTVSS VL: DIVMTQSPLSLPVTPGEPASISCTSSQSLLYSIGYNYVDWYLQKSGQSPQLLIYLGNKRASGVPDRFSGSGSGTDFTLKISRVEAEDVGFYYCMQSLTSPYTFGQGTKLEIK , I see its Relative Blockade of IL-4 Binding IC50 listed as 0.887 relative to dupilumab

Measured Relative Blockade of IL-4 Binding IC50, Construct 17 (mAb425) (antibody, IgG4, V domains shown, VH/VL only) VH: EVQLVESGGGLEQPGGSLRLSCAGSGFTFRDFAMTWVRQAPGKGLEWVSSISGSGSSTYYADSVKGRFTISRDNSKNTLYLQMNSLRAEDTAVYYCAKDRLSVTVRPRYYGLDVWGQGTTVTVSS VL: DIVMTQSPLSLPVTPGEPASISCTASQSLLYSIGYNYVDWYLQKSGQSPQLLIYLGSKRASGVPDRFSGSGSGTDFTLKISRVEAEDVGFYYCMQAYNSPYTFGQGTKLEIK : 1.11 relative to dupilumab

Sample Construct 39 (mAb473) (antibody, IgG4, V domains shown, VH/VL only) VH: EVQLVESGGGLEQPGGSLRLSCAGSGFTFRDSAMTWVRQAPGKGLEWVSSISGSGDNTYYADSVKGRFTISRDNSKNTLYLQMNSLRAEDTAVYYCAKDRLSITVRPRYYGLDVWGQGTTVTVSS VL: DIVMTQSPLSLPVTPGEPASISCRSSQSLLYSIGKNYVDWYLQKSGQSPQLLIYLGNKRASGVPDRFSGSGSGTDFTLKISRVEAEDVGFYYCMQALGSPYTFGQGTKLEIK ; Relative Blockade of IL-4 Binding IC50 observed: 1.09 relative to dupilumab

Relative Blockade of IL-4 Binding IC50 in this record for Construct 12 (mAb421) (antibody, IgG4, V domains shown, VH/VL only) VH: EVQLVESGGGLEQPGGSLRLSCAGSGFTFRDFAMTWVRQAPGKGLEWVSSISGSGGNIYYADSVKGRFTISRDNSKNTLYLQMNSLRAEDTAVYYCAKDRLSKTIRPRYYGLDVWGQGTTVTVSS VL: DIVMTQSPLSLPVTPGEPASISCRSSQSVLYSIGYNYVDWYLQKSGQSPQLLIYLGNKRASGVPDRFSGSGSGTDFTLKISRVEAEDVGFYYCMQSLTSPYTFGQGTKLEIK : 1.07 relative to dupilumab

response.value for Construct 36 (mAb469) (antibody, IgG4, V domains shown, VH/VL only) VH: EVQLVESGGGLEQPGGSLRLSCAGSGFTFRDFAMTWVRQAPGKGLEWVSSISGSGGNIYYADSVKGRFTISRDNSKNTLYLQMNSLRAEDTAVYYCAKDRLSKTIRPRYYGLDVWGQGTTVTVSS VL: DIVMTQSPLSLPVTPGEPASISCRSSQSLLYSIGKNYVDWYLQKSGQSPQLLIYEGNNRASGVPDRFSGSGSGTDFTLKISRVEAEDVGFYYCMQSLTSPYTFGQGTKLEIK (field: Relative Blockade of IL-4 Binding IC50) = 1.18 relative to dupilumab
